These data points were gathered from the supplement of paper PMC6607015.

Test system: A431
Test: whole-cell filipin (free cholesterol) integrated intensity, Z-score; higher = more cholesterol staining
Details: compound concentration in added solution (µM; 5 µl added to 20 µl cells): 10; 18 h
Structures can show the parent of a compound that is named as a salt.
Please note: Y applies when whole-cell filipin (z-score) is -0.06 or greater, and N applies otherwise.

molecule="COc1ccccc1N1CCN(CCCNc2cc(=O)n(C)c(=O)n2C)CC1 [Urapidil hydrochloride]" class=N
molecule="CN1CCN(CCCN2c3ccccc3Sc3ccc(Cl)cc32)CC1 [Prochlorperazine dimaleate]" class=Y
molecule="CN(Cc1cnc2nc(N)nc(N)c2n1)c1ccc(C(=O)N[C@@H](CCC(=O)O)C(=O)O)cc1 [Methotrexate]" class=Y
molecule="CCN(CC)CCOC(=O)C1(c2ccc([N+](=O)[O-])cc2)CCCC1 [Nitrocaramiphen hydrochloride]" class=N
molecule="Cc1cccc(CN2CCN(C(c3ccccc3)c3ccc(Cl)cc3)CC2)c1 (stereo unspecified) [Meclozine dihydrochloride]" class=N
molecule="OCCN1CCN(CCCN2c3ccccc3C=Cc3ccccc32)CC1 [Opipramol dihydrochloride]" class=Y
molecule=CN(C)[C@@H]1C(O)=C(C(=O)NCNCCCC[C@H](N)C(=O)O)C(=O)[C@@]2(O)C(O)=C3C(=O)c4c(O)cccc4[C@@](C)(O)[C@H]3C[C@@H]12 class=Y
molecule="NS(=O)(=O)c1cc(C2(O)NC(=O)c3ccccc32)ccc1Cl (stereo unspecified)" class=N
molecule=Cc1ncc([N+](=O)[O-])n1CCO class=N
molecule=C[C@H]1NC(=O)NC1=O class=N
molecule=C[C@H]1C[C@H]2[C@@H]3CCC4=CC(=O)C=C[C@]4(C)[C@@]3(F)[C@@H](O)C[C@]2(C)[C@@]1(O)C(=O)CO class=N
molecule="CNCCC(Oc1ccc(C(F)(F)F)cc1)c1ccccc1 (stereo unspecified) [Fluoxetine hydrochloride]" class=Y
molecule="CN(C)CC/C=C1/c2ccccc2COc2ccc(CC(=O)O)cc21 [Olopatadine hydrochloride]" class=Y
molecule=O=C1CN(/N=C/c2ccc([N+](=O)[O-])o2)C(=O)N1 class=N
molecule="CN[C@@H]1[C@@H](O)[C@@H](O[C@@H]2[C@@H](O)[C@H](O[C@H]3OC(CN)=CC[C@H]3N)[C@@H](N)C[C@H]2N)OC[C@]1(C)O [Sisomicin sulfate]" class=N
